# target under test: human TRPA1 (Homo sapiens)
# Construct: expressed in transfected cells
# Sequence (O75762 whole entry): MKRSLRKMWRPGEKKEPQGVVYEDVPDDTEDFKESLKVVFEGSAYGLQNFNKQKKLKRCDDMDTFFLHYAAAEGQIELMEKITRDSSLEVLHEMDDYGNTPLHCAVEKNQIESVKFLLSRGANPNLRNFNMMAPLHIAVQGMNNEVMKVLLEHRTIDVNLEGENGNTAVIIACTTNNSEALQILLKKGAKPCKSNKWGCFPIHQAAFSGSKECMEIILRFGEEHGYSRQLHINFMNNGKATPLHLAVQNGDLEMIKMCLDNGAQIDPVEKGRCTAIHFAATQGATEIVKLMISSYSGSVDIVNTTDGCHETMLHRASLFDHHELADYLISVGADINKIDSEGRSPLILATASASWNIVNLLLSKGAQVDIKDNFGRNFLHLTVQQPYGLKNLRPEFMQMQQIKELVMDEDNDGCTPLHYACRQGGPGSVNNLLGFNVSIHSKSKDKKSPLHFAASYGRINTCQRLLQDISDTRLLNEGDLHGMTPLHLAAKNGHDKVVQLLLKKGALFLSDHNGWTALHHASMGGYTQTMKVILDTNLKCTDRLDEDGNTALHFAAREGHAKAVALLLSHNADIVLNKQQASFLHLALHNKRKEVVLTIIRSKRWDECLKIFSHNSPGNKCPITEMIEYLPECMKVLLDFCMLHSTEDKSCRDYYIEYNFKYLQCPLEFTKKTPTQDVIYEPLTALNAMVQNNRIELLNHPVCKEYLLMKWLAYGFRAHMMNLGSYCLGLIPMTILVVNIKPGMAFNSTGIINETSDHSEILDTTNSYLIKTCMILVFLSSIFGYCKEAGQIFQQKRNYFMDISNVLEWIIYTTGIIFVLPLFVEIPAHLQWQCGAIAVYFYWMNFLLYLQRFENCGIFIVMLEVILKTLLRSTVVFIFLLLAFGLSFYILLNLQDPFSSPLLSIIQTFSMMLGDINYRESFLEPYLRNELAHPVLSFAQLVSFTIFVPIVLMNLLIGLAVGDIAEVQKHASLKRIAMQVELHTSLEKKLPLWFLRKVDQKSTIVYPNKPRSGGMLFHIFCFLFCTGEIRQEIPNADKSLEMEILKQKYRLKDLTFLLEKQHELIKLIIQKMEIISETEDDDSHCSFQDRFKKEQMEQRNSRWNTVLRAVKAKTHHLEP
# protocol: Cell-based functional intracellular calcium ([Ca2+]i) assay, Fluo-4/Fluo-8, FlexStation, challenge with reference TRPA1 agonist (FFA, AITC or 4-HNE)
# assay conditions: HEK293 cells expressing human TRPA1; IC50 class after addition of reference TRPA1 agonist (FFA, AITC or 4-HNE); read-out: human TRPA1-HEK Activity
measured attribute: IC50

| compound | target under test | test value |
| --- | --- | --- |
| Cn1c(=O)n(C2CCN(C(=O)c3cc(-c4ccncc4)n(-c4ccccc4)n3)CC2)c2ccccc21 | human TRPA1 (Homo sapiens) | > 25 µM |

Now look at this entry.
Sure, the documented IC50 for O=C(c1cc(-c2ccncc2)n(-c2ccc(C(F)(F)F)cc2)n1)N1CCC(n2c(=O)[nH]c3cc(C(F)(F)F)ccc32)CC1 is 5 to 25 µM
